Where these numbers come from: PubChem BioAssay

- measured-target: Calcium-dependent protein kinase 4 (Plasmodium falciparum (isolate 3D7)) (UniProt Q8IBS5)
- Sequence (Q8IBS5 whole entry, looked up): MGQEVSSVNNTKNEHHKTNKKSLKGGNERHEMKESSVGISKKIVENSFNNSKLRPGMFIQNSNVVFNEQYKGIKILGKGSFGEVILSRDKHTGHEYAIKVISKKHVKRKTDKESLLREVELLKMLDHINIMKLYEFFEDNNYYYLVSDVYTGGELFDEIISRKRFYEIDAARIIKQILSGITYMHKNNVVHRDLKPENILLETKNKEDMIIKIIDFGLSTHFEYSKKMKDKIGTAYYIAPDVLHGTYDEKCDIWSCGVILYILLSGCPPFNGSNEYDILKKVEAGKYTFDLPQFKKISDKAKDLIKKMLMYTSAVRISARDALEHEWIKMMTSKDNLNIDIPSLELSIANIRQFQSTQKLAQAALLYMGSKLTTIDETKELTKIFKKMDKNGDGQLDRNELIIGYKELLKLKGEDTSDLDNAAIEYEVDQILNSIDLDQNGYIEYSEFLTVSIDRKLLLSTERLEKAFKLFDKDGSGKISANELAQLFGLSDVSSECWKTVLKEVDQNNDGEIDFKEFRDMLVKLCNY
- assay-notes: PfCDPK4 kinase inhibitors, biochemical, TCAMS library (AID 1159588)
- assay-conditions: recombinant PfCDPK4, Kinase-Glo ATP depletion luminescence
Measured potencies and affinities stand elsewhere. Calls of active or inactive are those of the source. The limit is not given here; nearly all actives have IC50 up to about 0.91 µM.

compound	outcome
COc1ccc2ncc(Cl)c(CCN3C[C@H](CNCc4ccc5c(n4)NC(=O)CS5)[C@H](O)C3)c2n1	inactive
COc1ccc(OC)c(NC(=O)c2c(-c3c(F)cccc3Cl)noc2C)c1	inactive
N#Cc1c(N)n(CCc2ccc(F)cc2)c2nc3ccccc3nc12	inactive
Cc1cccc2[nH]c(-c3cccc(-c4cccc(NC(=O)C(C)CN(C)C)c4)c3)nc12 (centres undefined)	inactive
CNc1nc(NN=Cc2ccccc2Cl)nc(Nc2cccc(C(F)(F)F)c2)n1	inactive
COc1ccc(Cn2c(Nc3cccc(C(F)(F)F)c3)nc3cc(C(=O)NCCN4CCCC4)ccc32)cc1Cl	inactive
Cc1cc(N[C@@H](Cc2ccccc2)C(=O)NCCOc2ccccc2)nc(NCCc2ccccn2)n1	inactive
COc1ccc(CNCc2cccc(-c3ccc(-c4nc5c(C)cccc5[nH]4)cc3)c2)cc1	inactive
O=C(Nc1cccc(-c2ccc(-c3nc4ccc(C(F)(F)F)cc4[nH]3)cc2)c1)Nc1ccc(Cl)c(Cl)c1	inactive
